Measured Inhibition of binding (%) by item
- Assay target: hCMV gH + gL + UL128 + UL130 + UL131A (co-expressed in HEK293T cells) (human cytomegalovirus), P12824
- Protocol text: competitor: 4I22-biotin; cell staining
- Condition context: remark: other sources report otherwise
Expressed in %, but write only the number.

[
  {
    "Binder": "9I6 (antibody, V domains shown) VH: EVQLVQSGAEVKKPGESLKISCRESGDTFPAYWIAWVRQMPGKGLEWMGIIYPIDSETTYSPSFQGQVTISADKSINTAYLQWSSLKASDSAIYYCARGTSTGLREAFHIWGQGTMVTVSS VL: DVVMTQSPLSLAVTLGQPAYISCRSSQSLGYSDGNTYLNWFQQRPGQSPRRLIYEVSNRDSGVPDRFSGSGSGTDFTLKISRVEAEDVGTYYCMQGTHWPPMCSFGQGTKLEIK",
    "Inhibition of binding (%)": 0
  },
  {
    "Binder": "10F7 (antibody, V domains shown) VH: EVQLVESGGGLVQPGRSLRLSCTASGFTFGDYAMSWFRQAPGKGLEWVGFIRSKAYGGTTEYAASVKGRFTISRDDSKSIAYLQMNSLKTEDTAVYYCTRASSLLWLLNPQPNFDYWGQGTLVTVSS VL: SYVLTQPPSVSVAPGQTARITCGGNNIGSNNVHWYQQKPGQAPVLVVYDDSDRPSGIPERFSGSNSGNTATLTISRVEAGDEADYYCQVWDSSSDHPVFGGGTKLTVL",
    "Inhibition of binding (%)": 100
  }
]

For the next question, use this binder.
Consider the binder 4N10 (antibody, V domains shown) VH: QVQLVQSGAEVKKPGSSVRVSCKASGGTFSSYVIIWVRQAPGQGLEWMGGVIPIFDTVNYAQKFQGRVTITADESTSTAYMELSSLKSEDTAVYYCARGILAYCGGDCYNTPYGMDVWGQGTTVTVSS VL: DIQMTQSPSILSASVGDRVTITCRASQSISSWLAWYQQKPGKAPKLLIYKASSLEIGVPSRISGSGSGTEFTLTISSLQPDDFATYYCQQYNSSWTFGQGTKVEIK and give its measured Inhibition of binding (%). 0
